Listed here: items and their measured DC50.
- ASSAY SYSTEM: BRD protein (Homo sapiens, UniProt O60885)
- Construct: endogenous in cells; host or cells: MV-4-11
- ASSAY PROTOCOL: Reduction of bromodomain protein (BRD) expression levels in MV-4-11 cells (Western blot, DC50 and Dmax)
- Type: cell-based
- EXPERIMENTAL CONTEXT: 24 hours of treatment, 0.1, 1, 10 and 20 µM, BRD4 Western blot, GAPDH internal reference
- Procedure: The human […] MV-4-11 cells selected in this experiment were cultured in Iscove's Modified Dulbecco's Medium (IMDM) culture medium containing 10% fetal bovine serum (Gibco, USA) in an incubator under the conditions of at 37°C, 5% CO2 and 95% humidity. […] The concentration of the protein in the extract was detected by using a BCA method. […]

• Cc1sc2c(c1C)C(c1ccc(Cl)cc1)=N[C@@H](CC(=O)NCCOCC(=O)N1CCN(c3ccc(C4CCC(=O)NC4=O)nn3)CC1)c1nnc(C)n1-2 (stereo partly shown) [PRTB-06] = 1 to 10 µM
• Cc1sc2c(c1C)C(c1ccc(Cl)cc1)=N[C@@H](CC(=O)NCCCCCNC(=O)C#Cc1ccc(C3CCC(=O)NC3=O)nn1)c1nnc(C)n1-2 (stereo partly shown) [PRTB-13] = < 1 µM
• Cc1sc2c(c1C)C(c1ccc(Cl)cc1)=N[C@@H](CC(=O)NCCCn1cc(C#Cc3ccc(C4CCC(=O)NC4=O)nn3)cn1)c1nnc(C)n1-2 (stereo partly shown) [PRTB-15] = < 1 µM

Recall and state the measured DC50 for Cc1sc2c(c1C)C(c1ccc(Cl)cc1)=N[C@@H](CC(=O)NCCCCCOC1CN(c3ccc(C4CCC(=O)NC4=O)nn3)C1)c1nnc(C)n1-2 (stereo partly shown) [PRTB-12] .
< 1 µM

Give the reported value of DC50 for this record: Cc1sc2c(c1C)C(c1ccc(Cl)cc1)=N[C@@H](CC(=O)NCCOCC(=O)N1CCN(c3ccc(N4CCC(=O)NC4=O)nn3)CC1)c1nnc(C)n1-2 [PRTB-08]
1 to 10 µM

Report DC50, nothing else, for this compound: Cc1sc2c(c1C)C(c1ccc(Cl)cc1)=N[C@@H](CC(=O)NCCCOCC(=O)N1CCN(c3ccc(C4CCC(=O)NC4=O)nn3)CC1)c1nnc(C)n1-2 (stereo partly shown) [PRTB-07]
> 10 µM

###

As shown below, each of these compounds has a reported Dmax value.
- ASSAY SYSTEM: BRD protein (Homo sapiens)
- Construct: endogenous in cells; host or cells: MV-4-11
- ASSAY PROTOCOL: Reduction of bromodomain protein (BRD) expression levels in MV-4-11 cells (Western blot, DC50 and Dmax)
- Assay type: cell-based
- EXPERIMENTAL CONTEXT: MV4-11, 24 hours of treatment, 0.1, 1, 10 and 20 µM, BRD4 Western blot, GAPDH internal reference

Supply reported Dmax belonging to this compound: Cc1sc2c(c1C)C(c1ccc(Cl)cc1)=N[C@@H](CC(=O)NCCCCCNC(=O)C#Cc1ccc(C3CCC(=O)NC3=O)nn1)c1nnc(C)n1-2 (stereo partly drawn)
> 85%

Dear colleague, please send me the reported Dmax for Cc1sc2c(c1C)C(c1ccc(Cl)cc1)=N[C@@H](CC(=O)NCCOCC(=O)N1CCN(c3ccc(C4CCC(=O)NC4=O)nn3)CC1)c1nnc(C)n1-2 (stereo partly drawn) when you can.
50 to 85%

Indicate the recorded Dmax value for this compound: Cc1sc2c(c1C)C(c1ccc(Cl)cc1)=N[C@@H](CC(=O)NCCOCC(=O)N1CCN(c3nnc(C4CCC(=O)NC4=O)c4ccccc34)CC1)c1nnc(C)n1-2 (stereo partly drawn)
< 50%
